- assayed target: T1, human CD137-human Fc chimeric protein (Acro Biosystems cat no. 41B-H5258) (human, UniProt Q07011 24-186)
- T1 construct: Bought protein; The Octet Protein G and Biacore experiments name no catalogue number; also called human CD137Fc recombinant protein; human CD137-Fc recombinant protein; not shown: human IgG1 Fc tag
- procedure summary: BLI (Octet RED384), CD137-Fc on Protein G sensors, 1:1 model
measured parameter: kon (M⁻¹ s⁻¹)

Example binders with recorded kon:
Humabody VH 2.20 (VHH, human single VH domain) VHH: EVQLVESGGGLVKPGGSLRLSCAASGFTFSDYYMSWIRQAPGKGLEWVSHISSSGSTIDYADSVKGRFTISRDNAKNSLYLQMNSLRAEDTAVYYCAREDPRMPGTFDFDNWGQGTLVTVSS | 1.64e+06
Humabody VH 1.63 (VHH, human single VH domain) VHH: EVQLVESGGGLVQPGGSLSLSCAASGFTFRSFWMNWVRQAPGKEAEWVANINQDGSEKYYVDSVKGRFTISRDNAKNSLFLQMNSLRAEDTAVYYCARGGPDYGDLHYGMDVWGQGTTVTVSS | 217000
Humabody VH 1.1 (VHH, human single VH domain; also called single domain antibody 1.1) VH: EVQLVESGGGLVQPGGSLRLSCAASGFTFSSHWMTWFRQAPGKGLEWVAHIKEDGSEKYYEDSVEGRFTVSRDNAKNSVYLQMNSLRAEDTAVYYCARGGDGYSDSHFGVDVWGQGTTVTVSSHHHHHH | 989000

a = Humabody VH 1.18 (VHH, human single VH domain) VH: EVQLVESGGGLVQPGGSLRLSCAASGFTFSTHWMNWARQAPGKELEWVANINQDGSEKYYVDSVEGRFTISRDNANNSLYLQMNSLRAEDTAVYYCARGGVGYGDSHFGMDVWGLGTTVTVSSHHHHHH
b = Humabody VH 1.81 (VHH, human single VH domain) VHH: QVQLVESGGGLVQPGGSLRLSCAATGFTLSNYWMNWVRQAPGKGLEWVANINQDGSERYYVDSVEGRFTISRDNAKSSLYLQMSNLRAEDTAVYFCARGGEGYGVDHYGLDVSGQGTTVTVSS
Sorting by kon in descending order, would a or b appear first? Choose, then provide that item's label.
a
(a: 5.18e+06 M⁻¹ s⁻¹, b: 1.06e+06 M⁻¹ s⁻¹)
